Experiment: HepG2 cytotoxicity, primary screen, cytotoxicity control for P. falciparum antimalarial project, cell-based, ATP luminescence (AID 2303);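 note: 0% = DMSO wells and 100% = digitonin-killed cells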
Details: HepG2 viability, 24-48 h, at 10 µM, stronger effect = higher value
# reported inhibition; entries follow
# value in %; strip the unit string

// worked examples, inhibition included
[[record]]
compound = "COC(=O)/C=C/c1ccc(C[C@@H](C)NC[C@H](O)c2cccc(C(F)(F)F)c2)cc1"
measured_number = 41

[[record]]
compound = "Cc1cc(C)c(CC(C)NCC(O)c2cccc(C(F)(F)F)c2)c(C)c1 (stereo not given)"
measured_number = 0


// query Look up and state reported inhibition for Oc1ccc2[nH]cc(C3=CCN(Cc4ccccc4)CC3)c2c1
// result 1

// query // fetch inhibition given entry CCCCCCC(C)c1cc(O)c2c(c1)OC(C)(C)c1ccncc1-2 (stereo not given)
// result -3

// query Supply measured inhibition of CC1(CCCCN2CC=C(c3c[nH]c4ccccc34)CC2)C(=O)Nc2ccccc21 (stereo not given) in your reply.
// result 3
